System name: D(1A) dopamine receptor (Homo sapiens) (UniProt P21728)
Sequence (P21728 whole entry, looked up): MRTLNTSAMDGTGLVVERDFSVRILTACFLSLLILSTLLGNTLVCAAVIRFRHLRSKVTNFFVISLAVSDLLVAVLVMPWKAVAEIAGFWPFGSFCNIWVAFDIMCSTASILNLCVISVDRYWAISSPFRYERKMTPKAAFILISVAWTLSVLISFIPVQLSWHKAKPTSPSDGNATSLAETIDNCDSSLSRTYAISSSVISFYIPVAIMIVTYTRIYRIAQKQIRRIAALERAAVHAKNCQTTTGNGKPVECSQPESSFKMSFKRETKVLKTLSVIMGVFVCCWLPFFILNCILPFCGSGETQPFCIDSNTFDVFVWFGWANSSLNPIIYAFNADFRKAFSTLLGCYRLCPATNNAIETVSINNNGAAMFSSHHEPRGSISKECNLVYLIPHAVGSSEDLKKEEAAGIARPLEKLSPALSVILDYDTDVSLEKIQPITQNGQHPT
Assay remarks: Antagonist of Human D 1 Dopamine Receptor: qHTS; further: on the % scale 0 is the no-effect control and ±100 the full control effect
Condition info: HEK293 TREx D1 cells, calcium flux, dopamine EC80; at 10 µM
Out of some 360,000 compounds screened, about 11,000 (3.1%) were called active. No stated cut-off is given here; in the data, active means activity change below about -30%; inactive means the rest. The full list was thinned out, with actives kept by preference.
Tick one outcome: active, inactive

Use these answered entries as a reference point.
>  <Molecule>
CC1CCCN(CCOCCOc2ccccc2-c2ccccc2)C1 (stereo not given)

>  <Group>
active

$$$$
>  <Molecule>
Cc1cccc(N2CCN(c3ccc(C(N)=O)cc3[N+](=O)[O-])CC2)c1C

>  <Group>
inactive

$$$$
>  <Molecule>
COc1ccccc1C(=O)Nc1ccc(C)c(S(=O)(=O)N2CCCCC2)c1

>  <Group>
inactive

$$$$
>  <Molecule>
CCCOc1ccc(/C(O)=C2/C(=O)C(=O)N(CCN(C)C)C2c2ccc(OC)c(OC)c2)cc1 (stereo not given)

>  <Group>
active

$$$$
>  <Molecule>
COc1ccc(NC(=O)CSc2nnc(C3CC3)n2C)cc1S(=O)(=O)N1CCCCC1

>  <Group>
inactive

$$$$
>  <Molecule>
COc1cccc(C2/C(=C(/O)c3ccncc3)C(=O)C(=O)N2CCCN(C)C)c1 (stereo not given)

>  <Group>
inactive

$$$$
>  <Molecule>
COc1ccccc1-c1ccnc2[nH]n(-c3ccccc3)c(=O)c12

>  <Group>
inactive

$$$$
>  <Molecule>
COc1ccc(/C(O)=C2/C(=O)C(=O)N(CCCN(C)C)C2c2ccccc2)cc1OC (stereo not given)

>  <Group>
active

$$$$

Query: Please indicate how the test categorized COc1ccc(-c2cc(-c3nc(-c4cc(OC)c(OC)c(OC)c4)no3)[nH]n2)c(OC)c1 .
Reply: inactive

Query: Queued: COc1cccc(CNC(=O)Cc2csc3nc(-c4ccccc4)cn23)c1
Reply: inactive

====

System name: D(1A) dopamine receptor (Homo sapiens) (UniProt P21728)
Assay remarks: Antagonist of Human D 1 Dopamine Receptor: qHTS; further: on the % scale 0 is the no-effect control and ±100 the full control effect
Condition info: HEK293 TREx D1 cells, calcium flux, dopamine EC80; at 10 µM
The campaign covered roughly 360,000 compounds. About 11,000 (3.1%) were called active. Rule as the data show it: active = activity change below about -30%; inactive = the rest. Many of the other results were omitted from the sample, so actives are more common in it than they were.
Tick one outcome: active, inactive

Use these answered entries as a reference point.
>  <Compound>
O=C(Nc1ccc(F)cc1)C1CCN(C(=O)c2ccc([N+](=O)[O-])cc2)CC1

>  <System name>
D(1A) dopamine receptor (Homo sapiens) (UniProt P21728)

>  <Group>
active

$$$$
>  <Compound>
COc1ccc(NC(=O)Cn2c(-c3ccc(OC)cc3)cn(-c3ccc(C)cc3)c2=O)cc1

>  <System name>
D(1A) dopamine receptor (Homo sapiens) (UniProt P21728)

>  <Group>
inactive

$$$$
>  <Compound>
COc1ccccc1CNc1ccc(-c2nc(-c3ccccc3C)no2)cc1[N+](=O)[O-]

>  <System name>
D(1A) dopamine receptor (Homo sapiens) (UniProt P21728)

>  <Group>
inactive

$$$$
>  <Compound>
N#Cc1ccc(-c2cccs2)nc1SCc1ccc(Br)cc1

>  <System name>
D(1A) dopamine receptor (Homo sapiens) (UniProt P21728)

>  <Group>
inactive

$$$$
>  <Compound>
N#Cc1cccc(NC(=O)CN2CCCCCC2)c1

>  <System name>
D(1A) dopamine receptor (Homo sapiens) (UniProt P21728)

>  <Group>
inactive

$$$$

Query: Please indicate how the test categorized CCOc1ccc(C(=O)c2cn(Cc3ccc(F)cc3)c3ccc(F)cc3c2=O)cc1 .
Reply: inactive

Query: Queued: CCc1cc(C(=O)Nc2nnc(C3CC3)s2)sc1C
Reply: inactive

Query: Queued: COc1ccc(C2Nc3ccccc3C(=O)N2c2ccc(Cl)cc2)cc1Cn1cc([N+](=O)[O-])cn1 (configuration not stated)
Reply: active

Query: Queued: COc1ccc(CN2CCCC(C(=O)c3ccc(Cl)cc3)C2)cc1Cn1cncn1 (configuration not stated)
Reply: inactive

Query: Queued: O=C(Cn1c(=O)n(-c2ccc(F)cc2)c(=O)c2sccc21)Nc1cccc(C(F)(F)F)c1
Reply: inactive

Query: Queued: CCOc1ccc(NC(=O)CSc2c3c(nc4ccccc24)CCCC3)cc1
Reply: inactive

Query: Queued: O=C(CSc1ncc(S(=O)(=O)c2ccc(Br)cc2)c(=O)[nH]1)Nc1ccc2c(c1)OCCO2
Reply: inactive

Query: Queued: Cc1cc2c(cc3c(SCc4nc(-c5ccccc5)oc4C)nnc(C)n32)o1
Reply: inactive

Query: Queued: O=C(Nc1nnc(C2CC2)s1)c1ccccn1
Reply: inactive

Query: Queued: COc1ccc(NC(=O)CC(NC(C)c2ccccc2)C(=O)O)cc1 (configuration not stated)
Reply: inactive

====

System name: D(1A) dopamine receptor (Homo sapiens)
Assay remarks: Antagonist of Human D 1 Dopamine Receptor: qHTS; further: on the % scale 0 is the no-effect control and ±100 the full control effect
Condition info: HEK293 TREx D1 cells, calcium flux, dopamine EC80; at 10 µM; active compounds read low
Among all 360,000 compounds or so, about 11,000 (3.1%) were called active. The sample holds actives, similar compounds and a random draw of the others, so the mix is not that of the screen.
Catalogue of activity change, negative = inhibition values
The response must be a number in % with no trailing unit.

Look over these answered cases.
>  <Molecule>
O=C(CSc1ccccc1F)NC1CCS(=O)(=O)C1 (configuration not stated)

>  <Value measured>
2.27

$$$$
>  <Molecule>
COC(=O)c1cccc(Cn2nnc3sc4c(c3c2=O)CCC(C(C)(C)C)C4)c1 (configuration not stated)

>  <Value measured>
7.77

$$$$
>  <Molecule>
O=C(OCC(=O)N1CCN(C(=O)c2ccco2)CC1)c1ccc(Cl)c(Cl)c1

>  <Value measured>
-10.9

$$$$
>  <Molecule>
COc1ccc2[nH]c(C)c(CCN(Cc3cccs3)C(=S)Nc3ccccc3OC)c2c1

>  <Value measured>
-1.49

$$$$
>  <Molecule>
COC(=O)CN1C(=O)CSc2ccc(S(=O)(=O)Nc3cc(C)ccc3C)cc21

>  <Value measured>
7.51

$$$$
>  <Molecule>
CCc1cccc(NC(=O)CSc2nccn2C)c1

>  <Value measured>
6.16

$$$$
>  <Molecule>
CC(C)S(=O)(=O)c1oc(-c2ccc(F)cc2)nc1S(=O)(=O)c1ccc(F)cc1

>  <Value measured>
6.44

$$$$
>  <Molecule>
O=C(Cn1c(-c2ccc(Cl)cc2)noc1=O)N1CCN(c2ccccc2F)CC1

>  <Value measured>
-13.7

$$$$
>  <Molecule>
Cc1ccc(C)c(N2C(=O)N(Cc3c(F)cccc3Cl)c3ccccc3S2(=O)=O)c1

>  <Value measured>
-19.3

$$$$
>  <Molecule>
CCOC(=O)c1ccccc1NC(=O)c1sc2nc(-c3ccc(F)cc3)cn2c1C

>  <Value measured>
6.46

$$$$

Query: Recall the recorded activity change, negative = inhibition for O=C(NCCc1ccc(Cl)cc1Cl)c1cc([N+](=O)[O-])c[nH]c1=O with D(1A) dopamine receptor (Homo sapiens) and state it.
Reply: -1.06

Query: Queued: COc1ccc(CNC(=O)c2cc3cccc(OC)c3oc2=O)cc1
Reply: -1.99

Query: Queued: CCCc1cc(C(=O)Nc2ccc(Cl)cn2)cs1
Reply: 11

Query: Queued: CCN(CC)C(=O)CCC(=O)Nc1ccc(C(=O)OC)cc1
Reply: -2.84

Query: Queued: CCCc1cc(C(=O)Nc2ccc(C(=O)OC)cc2)cs1
Reply: -31.2

====

System name: D(1A) dopamine receptor (Homo sapiens) (UniProt P21728)
Assay remarks: Antagonist of Human D 1 Dopamine Receptor: qHTS; further: on the % scale 0 is the no-effect control and ±100 the full control effect
Condition info: HEK293 TREx D1 cells, calcium flux, dopamine EC80; at 10 µM; active compounds read low
In all, about 360,000 compounds went through this assay and about 11,000 (3.1%) were called active. Only a selection was taken, and actives are over-represented in it overall.
Recorded metric: activity change, negative = inhibition (%)
The response must be a number in % with no trailing unit.

>  <Compound>
OCC1(CCc2ccccc2)CCN(Cc2ccc3nsnc3c2)CC1

>  <Readout units>
%

>  <activity change, negative = inhibition>
-86

$$$$

Query: Tell me the measured activity change, negative = inhibition of O=C(Cc1c[nH]c2ccccc12)OCCOC(=O)Cc1c[nH]c2ccccc12 , please.
Reply: -32.2

Query: Queued: Cc1cccc(N2CCN(S(=O)(=O)c3ccc(-c4cc(C)no4)s3)CC2C)c1 (stereo not given)
Reply: -39.9

Query: Queued: O=C(c1ccc2c(c1)N(Cc1ccccc1)C(=O)c1ccccc1S2(=O)=O)N1CCCC1
Reply: 1.23

Query: Queued: CC(C)(O)C#Cc1ccc(CN2CCC(CO)(CCc3ccccc3)CC2)cc1
Reply: 10.7

====

Catalogue of activity change, negative = inhibition values
System name: D(1A) dopamine receptor (Homo sapiens) (UniProt P21728)
Assay remarks: Antagonist of Human D 1 Dopamine Receptor: qHTS; further: on the % scale 0 is the no-effect control and ±100 the full control effect
Condition info: HEK293 TREx D1 cells, calcium flux, dopamine EC80; at 10 µM; active compounds read low
In all, about 360,000 compounds went through this assay and about 11,000 (3.1%) were called active. The list comes from a sample in which actives are over-represented; it also holds close analogues and randomly drawn compounds.
The response must be a number in % with no trailing unit.

Query: Tell me the measured activity change, negative = inhibition of CCCCCOC(=O)NCCOC(=O)Nc1ccc(C(=O)OCC)cc1 , please.
Reply: -34.7

Query: Queued: COc1ccc(CNC(=O)c2cc3c(=O)[nH]c4ccccc4c3s2)cc1
Reply: -33.6

Query: Queued: CC1=Nc2cc(C(=O)N3CCC(C)CC3)ccc2Sc2ccc(Cl)cc21
Reply: 5.84

Query: Queued: Cc1nc(C)c(-c2csc(NCCc3ccccc3)n2)s1
Reply: -71

Query: Queued: CCOc1cc(NC(=S)NCc2ccco2)c(OCC)cc1NC(=O)c1ccco1
Reply: -1.48

Query: Queued: N#Cc1nc(-c2ccc(OCc3ccccc3)cc2)oc1NCCCN1CCOCC1
Reply: -46.5

Query: Queued: COC(=O)C1=CN(Cc2ccc(OC)cc2)C=C(C(=O)OC)C1c1ccc(O)c(OC)c1
Reply: 11.1

Query: Queued: Cc1ccccc1CNC(=O)CSc1nnc(C)c2c(C)n(-c3ccccc3)nc12
Reply: -8.46

Query: Queued: CN(CC(=O)Nc1ccccc1F)S(=O)(=O)c1ccc2c(c1)c(=O)n(C)c(=O)n2C
Reply: 8.37
